- System: 156681-154-R-J1-PDC tumor spheroids, viability % test/control
- assay_notes: Anticancer human tumor 156681-154-R-J1-PDC patient-derived melanoma cell line growth inhibition [TAK]; active = viability on the fitted dose curve at most 10% of control; inactive = the rest
- condition_set: second compound 0.3 µM; first compound 1 µM; spheroids with HUVEC and MSC
- Protocol: Combinatorial screen of targeted agents with TAK-243 and ipatasertib in multi-cell type tumor spheroids […] Compounds. […] If the clinical Cmax for an agent had not been determined, the highest concentration tested was 10 microM. NCI60 Cell Culture. […] The optimal seeding densities for each of the cell lines at each time point assessed were determined prior to performing the concentration response studies. […]
Outcomes: active, inactive

compound: CC(C)(C)c1nc(-c2cccc(NS(=O)(=O)c3c(F)cccc3F)c2F)c(-c2ccnc(N)n2)s1 + CC(C)NCC(C(=O)N1CCN(c2ncnc3c2C(C)CC3O)CC1)c1ccc(Cl)cc1
label: inactive
--
compound: Cc1nc(NC(=O)N2CCCC2C(N)=O)sc1-c1ccnc(C(C)(C)C(F)(F)F)c1 (centres undefined) + CC(C)NCC(C(=O)N1CCN(c2ncnc3c2C(C)CC3O)CC1)c1ccc(Cl)cc1
label: inactive
--
compound: COc1c(OCCCN2CCOCC2)ccc2c3n(c(=NC(=O)c4cnc(N)nc4)nc12)CCN3 + CC(C)NCC(C(=O)N1CCN(c2ncnc3c2C(C)CC3O)CC1)c1ccc(Cl)cc1
label: active
--
compound: CCCS(=O)(=O)Nc1ccc(F)c(C(=O)c2c[nH]c3ncc(-c4ccc(Cl)cc4)cc23)c1F + CC(C)NCC(C(=O)N1CCN(c2ncnc3c2C(C)CC3O)CC1)c1ccc(Cl)cc1
label: inactive

---

- Test system: 156681-154-R-J1-PDC tumor spheroids, viability % test/control
- assay_notes: Anticancer human tumor 156681-154-R-J1-PDC cell line growth inhibition [TAK];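 also: spheroids exposed to compounds for 7 days before the endpoint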
- condition_set: second compound 30 µM; first compound 0.00316 µM; active compounds read low; spheroids with HUVEC and MSC

compound: CC(C)CC(NC(=O)C(Cc1ccccc1)NC(=O)c1cnccn1)B(O)O (stereo not given) + CC(C)NCC(C(=O)N1CCN(c2ncnc3c2C(C)CC3O)CC1)c1ccc(Cl)cc1
experimental_target: 156681-154-R-J1-PDC tumor spheroids, viability % test/control
viability, T/C [%]: 1.86

compound: COC1CC2CCC(C)C(O)(O2)C(=O)C(=O)N2CCCCC2C(=O)OC(C(C)CC2CCC(OCCO)C(OC)C2)CC(=O)C(C)C=C(C)C(O)C(OC)C(=O)C(C)CC(C)C=CC=CC=C1C (stereo not given) + CC(C)NCC(C(=O)N1CCN(c2ncnc3c2C(C)CC3O)CC1)c1ccc(Cl)cc1
experimental_target: 156681-154-R-J1-PDC tumor spheroids, viability % test/control
viability, T/C [%]: 12.1

compound: CC(C)n1nc(-c2ccc3oc(N)nc3c2)c2c(N)ncnc21 + CC(C)NCC(C(=O)N1CCN(c2ncnc3c2C(C)CC3O)CC1)c1ccc(Cl)cc1
experimental_target: 156681-154-R-J1-PDC tumor spheroids, viability % test/control
viability, T/C [%]: 12.3

compound: COc1c(OCCCN2CCOCC2)ccc2c3n(c(=NC(=O)c4cnc(N)nc4)nc12)CCN3 + CC(C)NCC(C(=O)N1CCN(c2ncnc3c2C(C)CC3O)CC1)c1ccc(Cl)cc1
experimental_target: 156681-154-R-J1-PDC tumor spheroids, viability % test/control
viability, T/C [%]: 13.6

compound: CC(C)CC(NC(=O)CNC(=O)c1cc(Cl)ccc1Cl)B1OC(=O)CC(CC(=O)O)(C(=O)O)O1 (stereo not given) + CC(C)NCC(C(=O)N1CCN(c2ncnc3c2C(C)CC3O)CC1)c1ccc(Cl)cc1
experimental_target: 156681-154-R-J1-PDC tumor spheroids, viability % test/control
viability, T/C [%]: 18.5
